Sourced from BindingDB's records for doi:10.1146/annurev.pa.30.040190.003221

outcome-measure: pKi
Conceptually, pKi converts a concentration in mol/L into minus its log10.

Data request: Requested read-out pKi, target or system Muscarinic acetylcholine receptor M3 (Rattus norvegicus), entry C[C@H]1OC(=O)C2C[C@H]3CCCC[C@@H]3[C@@H](/C=C/[C@@H]3CCC[C@H](C)N3C)C21 (stereo partly specified) [HIMBACINE]
Data returned: 6.90
